Experiment: self-splicing fitness, log relative to wild type (ln ratio); higher = more splicing; Tetrahymena group I intron in knt gene, E. coli kanamycin selection, DiMSum; sequences stand for … in CUCUCU…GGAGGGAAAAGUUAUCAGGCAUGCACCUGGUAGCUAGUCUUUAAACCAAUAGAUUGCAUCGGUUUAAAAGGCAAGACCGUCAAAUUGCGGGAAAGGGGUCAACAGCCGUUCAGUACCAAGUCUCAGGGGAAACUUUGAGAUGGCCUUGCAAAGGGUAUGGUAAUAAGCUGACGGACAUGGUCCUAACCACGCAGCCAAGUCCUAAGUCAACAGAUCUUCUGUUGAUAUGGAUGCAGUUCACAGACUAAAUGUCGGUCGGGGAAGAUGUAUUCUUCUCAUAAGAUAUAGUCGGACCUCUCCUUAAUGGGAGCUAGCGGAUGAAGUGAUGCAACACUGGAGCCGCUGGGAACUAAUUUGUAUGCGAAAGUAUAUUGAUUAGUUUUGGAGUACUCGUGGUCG;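 also: selection with 25 µg/mL kanamycin versus none on LB agar overnight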
Conditions: 30 °C
Please note: t applies when self-splicing fitness (ln) is -2 or greater, and f applies otherwise.

Please review the following examples before continuing.
entry_sequence=CCGGAGCAAUAUUACGAACG group=t
entry_sequence=GCAAAGCAAUAUUACGGAGC group=f
entry_sequence=UGGAAGCAAUAUUACGACCG group=t
entry_sequence=GUACAGCAAUAUUACGGUCG group=t

Decide: self-splicing fitness (ln) of `UACUAGCAAUAUUACGAGAU` >= -2?
f

Decide: self-splicing fitness (ln) of `GGCUAGCAAUAUUACGACAA` >= -2?
t

###

Experiment: self-splicing fitness, log relative to wild type (ln ratio); higher = more splicing; Tetrahymena group I intron in knt gene, E. coli kanamycin selection, DiMSum; sequences stand for … in CUCUCU…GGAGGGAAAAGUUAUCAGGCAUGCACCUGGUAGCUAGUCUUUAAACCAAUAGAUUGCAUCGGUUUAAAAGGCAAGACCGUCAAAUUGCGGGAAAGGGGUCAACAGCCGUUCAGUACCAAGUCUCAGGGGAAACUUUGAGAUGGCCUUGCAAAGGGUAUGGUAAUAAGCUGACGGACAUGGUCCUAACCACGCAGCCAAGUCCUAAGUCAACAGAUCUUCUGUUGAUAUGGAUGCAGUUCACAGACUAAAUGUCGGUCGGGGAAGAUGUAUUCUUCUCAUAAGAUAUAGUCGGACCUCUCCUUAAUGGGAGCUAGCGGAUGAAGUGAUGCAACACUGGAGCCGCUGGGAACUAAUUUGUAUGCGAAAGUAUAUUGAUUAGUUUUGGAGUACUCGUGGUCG
Settings: 30 °C
Please note: label 1 applies when self-splicing fitness (ln) is -2 or greater, and label 0 applies otherwise.

entry_sequence=AAAUAGCAAUAUUACGGUUC group="label 1"
entry_sequence=CUUGAGCAAUAUUACGUUGU group="label 0"
entry_sequence=UCAAAGCAAUAUUACGAAGG group="label 0"

Decide: self-splicing fitness (ln) of `GUAAAGCAAUAUUACGAUAU` >= -2?
label 1

Decide: self-splicing fitness (ln) of `CCUAAGCAAUAUUACGCAAA` >= -2?
label 0

Decide: self-splicing fitness (ln) of `GCCCAGCAAUAUUACGGUCG` >= -2?
label 1

Decide: self-splicing fitness (ln) of `CGUCAGCAAUAUUACGGCCU` >= -2?
label 1

Decide: self-splicing fitness (ln) of `UUGGAGCAAUAUUACGUUAC` >= -2?
label 0

Decide: self-splicing fitness (ln) of `CGUUAGCAAUAUUACGGGGC` >= -2?
label 0

Decide: self-splicing fitness (ln) of `AACAAGCAAUAUUACGAUAA` >= -2?
label 1

Decide: self-splicing fitness (ln) of `UUCAAGCAAUAUUACGAUGU` >= -2?
label 0

Decide: self-splicing fitness (ln) of `AGGCAGCAAUAUUACGCGCU` >= -2?
label 0
